Here, each record is paired with measured MIC90 data.
# Test system: Superantigen negative Staphylococcus aureus (n = 48)
# Conditions: Superantigen negative (n = 48, 18 h)
Peptide text beside a SMILES is read from it.
Assay Readout: MIC90 (µg/mL)

compound=CCCCCCCCCC(=O)N[C@@H](Cc1c[nH]c2ccccc12)C(=O)N[C@H](CC(N)=O)C(=O)N[C@@H](CC(=O)O)C(=O)N[C@@H]1C(=O)NCC(=O)N[C@@H](CCCN)C(=O)N[C@@H](CC(=O)O)C(=O)N[C@H](C)C(=O)N[C@@H](CC(=O)O)C(=O)NCC(=O)N[C@H](CO)C(=O)N[C@@H]([C@H](C)CC(=O)O)C(=O)N[C@@H](CC(=O)c2ccccc2N)C(=O)O[C@@H]1C assay_readout=MIC90 reported=4
compound="CC[C@H](C)[C@H](NC(=O)CNC(=O)[C@H](CO)NC(=O)[C@H](CC(C)C)NC(=O)[C@@H](NC(=O)[C@H](CCCNC(=N)N)NC(=O)CNC(=O)[C@@H](NC(=O)[C@H](CC(C)C)NC(=O)[C@@H]1CCCN1C(=O)[C@H](CC(C)C)NC(=O)[C@@H](N)Cc1ccccc1)[C@@H](C)CC)C(C)C)C(=O)N[C@@H](CC(C)C)C(N)=O [Temporin A] (H-FLPLIGRVLSGIL-NH2)" assay_readout=MIC90 reported=32
compound="CC[C@H](C)[C@H](NC(=O)[C@@H](NC(=O)[C@H](CO)NC(=O)[C@H](C)NC(=O)[C@@H](NC(=O)[C@H](CCCCN)NC(=O)[C@H](CCCCN)NC(=O)[C@@H](NC(=O)[C@@H](NC(=O)[C@H](CC(=O)O)NC(=O)[C@H](Cc1ccccc1)NC(=O)[C@H](CC(C)C)NC(=O)CN)C(C)C)[C@@H](C)CC)C(C)C)C(C)C)C(=O)NCC(=O)NCC(=O)N[C@@H](CC(C)C)C(N)=O [Citropin 1.1] (H-GLFDVIKKVASVIGGL-NH2)" assay_readout=MIC90 reported=32
compound="CC[C@H](C)[C@H](NC(=O)[C@H](CCCCN)NC(=O)[C@H](CCCCN)NC(=O)[C@H](Cc1ccccc1)NC(=O)[C@H](CC(C)C)NC(=O)[C@H](CCCCN)NC(=O)[C@H](Cc1c[nH]c2ccccc12)NC(=O)[C@@H](N)CCCCN)C(=O)NCC(=O)N[C@@H](C)C(=O)N[C@H](C(=O)N[C@@H](CC(C)C)C(=O)N[C@@H](CCCCN)C(=O)N[C@H](C(=O)N[C@@H](CC(C)C)C(N)=O)C(C)C)C(C)C [CAMEL] (H-KWKLFKKIGAVLKVL-NH2)" assay_readout=MIC90 reported=4
